src = patent US8816095B2

Entries and their % inhibition for hERG assay, 3 μM values follow.
tested-system: hERG potassium channels (Homo sapiens, UniProt Q12809)
Construct: expressed in transfected cells; host or cells: HEK-293 (membranes)
Sequence (Q12809 whole entry): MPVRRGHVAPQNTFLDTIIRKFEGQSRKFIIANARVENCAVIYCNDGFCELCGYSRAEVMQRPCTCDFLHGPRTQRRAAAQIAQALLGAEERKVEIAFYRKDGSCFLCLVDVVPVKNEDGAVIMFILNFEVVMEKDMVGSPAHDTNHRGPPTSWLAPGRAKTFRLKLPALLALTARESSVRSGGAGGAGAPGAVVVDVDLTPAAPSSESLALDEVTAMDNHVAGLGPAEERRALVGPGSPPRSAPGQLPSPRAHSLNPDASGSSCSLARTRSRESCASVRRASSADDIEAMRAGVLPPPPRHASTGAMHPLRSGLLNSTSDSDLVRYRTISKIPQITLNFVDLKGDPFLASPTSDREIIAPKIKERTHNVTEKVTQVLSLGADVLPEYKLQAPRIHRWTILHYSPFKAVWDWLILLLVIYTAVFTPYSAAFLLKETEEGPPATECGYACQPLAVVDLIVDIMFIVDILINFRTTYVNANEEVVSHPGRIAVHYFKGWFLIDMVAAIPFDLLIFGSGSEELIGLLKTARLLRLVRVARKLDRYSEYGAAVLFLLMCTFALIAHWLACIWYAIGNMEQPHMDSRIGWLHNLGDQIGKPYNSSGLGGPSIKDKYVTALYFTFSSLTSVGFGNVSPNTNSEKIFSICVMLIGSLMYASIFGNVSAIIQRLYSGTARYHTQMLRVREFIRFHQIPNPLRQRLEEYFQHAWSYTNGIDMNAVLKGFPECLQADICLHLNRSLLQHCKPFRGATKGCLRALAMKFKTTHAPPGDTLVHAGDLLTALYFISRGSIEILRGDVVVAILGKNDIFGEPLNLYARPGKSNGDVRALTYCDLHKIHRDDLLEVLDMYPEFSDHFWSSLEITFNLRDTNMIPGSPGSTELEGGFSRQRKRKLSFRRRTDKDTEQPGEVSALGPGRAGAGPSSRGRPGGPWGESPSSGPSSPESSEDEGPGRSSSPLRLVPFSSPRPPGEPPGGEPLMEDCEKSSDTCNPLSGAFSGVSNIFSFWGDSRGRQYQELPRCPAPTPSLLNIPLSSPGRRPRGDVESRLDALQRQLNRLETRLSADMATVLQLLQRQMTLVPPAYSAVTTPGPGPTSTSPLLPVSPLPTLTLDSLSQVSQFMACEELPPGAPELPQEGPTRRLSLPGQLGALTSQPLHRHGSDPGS
protocol-notes: hERG binding assay ([35S]MK-499 displacement)
run-parameters: 3 μM; [35S]MK-499, HEK-293 hERG membranes
Report as a plain number; the unit % is understood.

Consider the following illustrative entries.
CCCCCCC[C@](O)(C(N)=O)c1cccc(Cl)c1 [Compound (R)-(−)-1]
20
CCCCCCCC(O)(C(N)=O)c1cccc(Cl)c1 (racemic) [(±)-1]
15
CCCCCCC[C@@](O)(C(N)=O)c1cccc(Cl)c1 [Compound (S)-(+)-1]
33

Now look at this one.
Query % inhibition for hERG assay, 3 μM for O=C1NC(=O)C(c2ccccc2)(c2ccccc2)N1 [DPH, Diphenylhydantoin, reference compound]
28
